B1: tRNA (parent)
chain: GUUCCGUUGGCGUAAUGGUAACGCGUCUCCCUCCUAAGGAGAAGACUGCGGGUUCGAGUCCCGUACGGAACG

Variants of: B1
test_method_notes: yeast fitness relative to wild type (ratio to wild type); higher = fitter; tRNA-Arg(CCU), competitive growth, 37 C, YPD
This sample holds only a part of the variants without activity.
Tag: T if measured yeast fitness is not below 0.6, F if it is.

yeast fitness >= 0.6 for C5G A45U G68C ?
F

# check: yeast fitness of U3C U8A C66A is greater than or equal to 0.6
F

Check the entry G12C A21C C60A : does yeast fitness equal or exceed 0.6?
F

Does C11U U16C G25A have a reported yeast fitness of at least 0.6?
T

Answer whether yeast fitness of G10C A15G U35A G44A A69C is greater than or equal to 0.6.
F

yeast fitness >= 0.6 for A14G U19C ?
T

Please check the record A15C G17A A36G G38C U59C and state if its yeast fitness is at or above 0.6.
F

Determine whether measured yeast fitness meets or exceeds 0.6 for C11G C24U U28C C66G
F

Kindly determine if yeast fitness recorded for A20C A70U is above or exactly 0.6.
T

Does C27U G38C G39A A43C C60G A65C have a reported yeast fitness of at least 0.6?
F

Check the entry U8C A42G G51U A57U : does yeast fitness equal or exceed 0.6?
F

Evaluate A21C C31U : yeast fitness at minimum 0.6?
T

Determine whether measured yeast fitness meets or exceeds 0.6 for A57G U59G
T

Please check the record C4G G12U A14C C49U A65G and state if its yeast fitness is at or above 0.6.
F

Is yeast fitness at least 0.6? Consider C5A U7G A14C U16G A43G U53C C62G
F

Evaluate G10C A21G C29A A43U C55A : yeast fitness at minimum 0.6?
T

Form field: yeast fitness at least 0.6? Entry: G39A U47C
T

Test whether the variant U8C G9A A20C G68C records yeast fitness of 0.6 or higher.
F

Threshold query (yeast fitness >= 0.6) on C5A A20G U32G A43C A45U
F

Dear colleague, could you confirm whether U3C C30A C31U has yeast fitness at or above 0.6?
T

// inclusive: yeast fitness at least 0.6? input: G9C U16A C24U C30U
F

Form field: yeast fitness at least 0.6? Entry: C31A G51C C55G A57U
F

I'd appreciate it if you could say whether C5A G17A A40U has yeast fitness at least equal to 0.6.
F

Check if yeast fitness >= 0.6 (inclusive). Item: U19A G25C C33A A37G C55U
F

Item A40U A45G C60A with yeast fitness of 0.6 or above?
F

Reported yeast fitness reaches at least 0.6 for U2G U7C C55U C62G C66A ?
F

Please indicate if the recorded yeast fitness for G9A A15G A43G C49G U53G meets or exceeds 0.6.
F

Determine whether measured yeast fitness meets or exceeds 0.6 for A15U G23A A45G
F

Is reported yeast fitness greater than or equal to 0.6 here: C4A C5U
T

Could you verify whether the entry C24G G25C A40C A42U U47A C61G C66G shows yeast fitness of no less than 0.6?
F

Tell me whether yeast fitness is at least 0.6 here: A45C G52A A69C
F

Is reported yeast fitness greater than or equal to 0.6 here: U13A U28A U47G
F

Record G6A G17A C24G C27G G67A ; criterion: yeast fitness no lower than 0.6. Met?
F

Evaluate G23C G63A : yeast fitness at minimum 0.6?
F

Check this variant for yeast fitness at or above 0.6: C11A A20C U28C A37U A40C G48A
F

# bool: yeast fitness of A14G A69U >= 0.6
T

Does the reported yeast fitness for A20U C24A A57C fall at or above the 0.6 mark?
F

Entry U3C C31U A65C : is its yeast fitness no less than 0.6?
T

Evaluate A14G U19G G48C : yeast fitness at minimum 0.6?
T

hey, is yeast fitness for this one >= 0.6? C5G U8A A20C A43C C46A
F

In plain terms: is recorded yeast fitness at least 0.6 for G17A C33A A37U A57G ?
F

Is yeast fitness at least 0.6? Consider U16A C30G C34G A42U G52A A57C A65G
F

Hi team, for U16G A42G G48A , is the recorded yeast fitness at or above 0.6?
F

Hey, just so you know, these numbers are from the RNAGym collection of RNA variant scans (doi:10.1126/science.aae0568).
